TEST_SUMMARY: Solubility limits of LCA and UDCA in organic solvents
Assay type: physicochemical
SETTINGS: organic solvent, organic solvent or mixture, thermodynamic from solid, ethyl acetate (EtOAc); read-out: solubility limit
RESULT_TYPE: solubility (µg/mL)
Hi! Could you send only the number? It should be in µg/mL, unit omitted.

Requested field: solubility. Item: C[C@H](CCC(=O)O)[C@H]1CC[C@H]2[C@@H]3[C@@H](O)C[C@@H]4C[C@H](O)CC[C@]4(C)[C@H]3CC[C@]12C
2900

====

TEST_SUMMARY: Solubility limits of LCA and UDCA in organic solvents
Type: physicochemical
SETTINGS: organic solvent, organic solvent or mixture, thermodynamic from solid, methyl isobutyl ketone (MIBK); read-out: solubility limit
RESULT_TYPE: solubility
Don't forget the unit after the value.

Requested field: solubility. Item: C[C@H](CCC(=O)O)[C@H]1CC[C@H]2[C@@H]3[C@@H](O)C[C@@H]4C[C@H](O)CC[C@]4(C)[C@H]3CC[C@]12C
4400 µg/mL

====

TEST_SUMMARY: Solubility limits of LCA and UDCA in organic solvents
Assay type: physicochemical
SETTINGS: organic solvent, organic solvent or mixture, thermodynamic from solid, DMSO; read-out: solubility limit
RESULT_TYPE: solubility

Requested field: solubility. Item: C[C@H](CCC(=O)O)[C@H]1CC[C@H]2[C@@H]3[C@@H](O)C[C@@H]4C[C@H](O)CC[C@]4(C)[C@H]3CC[C@]12C
> 500 mg/mL

====

TEST_SUMMARY: Solubility limits of LCA and UDCA in organic solvents
Format: physicochemical
SETTINGS: organic solvent, organic solvent or mixture, thermodynamic from solid, 2-butanol; read-out: solubility limit
RESULT_TYPE: solubility (mg/mL)
Hi! Could you send only the number? It should be in mg/mL, unit omitted.

Requested field: solubility. Item: C[C@H](CCC(=O)O)[C@H]1CC[C@H]2[C@@H]3[C@@H](O)C[C@@H]4C[C@H](O)CC[C@]4(C)[C@H]3CC[C@]12C
53

====

TEST_SUMMARY: Solubility limits of LCA and UDCA in organic solvents
Type: physicochemical
SETTINGS: organic solvent, organic solvent or mixture, thermodynamic from solid, THF; read-out: solubility limit
RESULT_TYPE: solubility (mg/mL)
Hi! Could you send only the number? It should be in mg/mL, unit omitted.

Requested field: solubility. Item: C[C@H](CCC(=O)O)[C@H]1CC[C@H]2[C@@H]3[C@@H](O)C[C@@H]4C[C@H](O)CC[C@]4(C)[C@H]3CC[C@]12C
259

====

TEST_SUMMARY: Solubility limits of LCA and UDCA in organic solvents
Type: physicochemical
SETTINGS: organic solvent, organic solvent or mixture, thermodynamic from solid, Me—THF; read-out: solubility limit
Procedure: The organic solvent was added in increments of 100 μL, and the mixture was treated by shaking in a vortex shaker and optionally in an ultrasonic bath. It was visually assessed as to whether a clear solution was present.
RESULT_TYPE: solubility (mg/mL)
Hi! Could you send only the number? It should be in mg/mL, unit omitted.

Requested field: solubility. Item: C[C@H](CCC(=O)O)[C@H]1CC[C@H]2[C@@H]3[C@@H](O)C[C@@H]4C[C@H](O)CC[C@]4(C)[C@H]3CC[C@]12C
63.4
